Reported IC50 by item:
test system: recombinant full-length human prolyl endopeptidase (PREP) (Homo sapiens)
Construct: To recombinant full-length human prolyl endopeptidase (PREP, R&D-Systems, 4308-SE)
Sequence (P48147 whole entry): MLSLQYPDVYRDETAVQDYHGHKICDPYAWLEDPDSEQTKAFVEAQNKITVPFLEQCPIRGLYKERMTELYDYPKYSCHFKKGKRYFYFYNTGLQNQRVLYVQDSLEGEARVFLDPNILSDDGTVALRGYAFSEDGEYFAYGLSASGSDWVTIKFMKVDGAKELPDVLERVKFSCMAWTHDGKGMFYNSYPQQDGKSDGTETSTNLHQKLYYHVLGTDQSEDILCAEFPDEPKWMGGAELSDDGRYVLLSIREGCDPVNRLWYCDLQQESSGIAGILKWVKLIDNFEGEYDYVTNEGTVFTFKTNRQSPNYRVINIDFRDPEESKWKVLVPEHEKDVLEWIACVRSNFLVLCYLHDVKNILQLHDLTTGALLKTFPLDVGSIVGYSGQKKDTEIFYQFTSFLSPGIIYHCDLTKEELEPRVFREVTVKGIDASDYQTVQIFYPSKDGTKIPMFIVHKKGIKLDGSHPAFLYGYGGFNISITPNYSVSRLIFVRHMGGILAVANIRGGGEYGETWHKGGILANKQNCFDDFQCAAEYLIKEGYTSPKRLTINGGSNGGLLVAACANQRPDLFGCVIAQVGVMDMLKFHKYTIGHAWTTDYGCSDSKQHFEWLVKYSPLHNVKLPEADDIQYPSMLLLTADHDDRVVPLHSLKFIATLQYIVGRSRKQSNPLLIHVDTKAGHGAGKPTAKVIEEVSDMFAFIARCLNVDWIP
assay explanation: Biochemical human prolyl endopeptidase (PREP) assay with fluorescently labelled substrate
experimental parameters: substrate Z-Gly-Pro-AMC 50 μM, 32° C., 60 min; some as mean values from multiple independent determinations
Express the result in nM but write the number alone.

These solved cases illustrate the format of a correct answer.
- O=C([C@@H]1CCCc2nn(Cc3ccnc(C(F)(F)F)c3)c(=O)n21)N1CC[C@H](F)C1: 1.1
- CC1CCC(C(=O)N2CCC(F)(F)C2)n2c1nn(Cc1ccc(F)c(Cl)c1)c2=O (racemic): 0.96
- COc1ccc(Cn2nc3n(c2=O)[C@H](C(=O)N2CCC(F)(F)C2)CCC3)cn1: 2.4
- COc1ccc(CCn2nc3n(c2=O)[C@H](C(=O)N2CCC(F)(F)C2)CCC3)cc1: 4.2
- O=C([C@@H]1CCCc2nn(CC3(c4ccc(F)cc4F)CC3)c(=O)n21)N1CCC(F)(F)C1: 1.1
- Cc1ccc(Cn2nc3n(c2=O)C(C(=O)N2CCCC2)CC(C(F)(F)F)C3)cc1 (single isomer, unassigned) [Example 225]: 0.23
- CC1Cc2nn(Cc3ccnc(C(F)(F)F)c3F)c(=O)n2C(C(=O)N2C[C@@H](F)[C@@H](F)C2)C1 (mixture of isomers): 2.1
- CC1CCC(C(=O)N2CCC(F)(F)C2)n2c1nn(Cc1ccc(C(F)(F)F)nc1)c2=O (racemic): 4.9
- CC1CCC(C(=O)N2CC(F)C2)n2c1nn(Cc1ccc(F)cc1F)c2=O (racemic): 4.3
- CNC(=O)c1ccc(Cn2nc3n(c2=O)C(C(=O)N2CCCC2)CCC3)cc1 (racemic): 210

As a next step, examine the molecule that follows.
Record summary for `O=C([C@@H]1CCCc2nn(Cc3ccc(Cl)cn3)c(=O)n21)N1CC(F)C1` : reported IC50 = 2.5
